# Tested on: NCI/ADR-RES ovarian
# experiment.notes: NCI tumour cell line growth inhibition, 48 h
readout: GI50

Reference set (5 entries):
# input Returns the measured GI50 for the input molecule. Input: "COc1cc[c]([Hg][Cl])cc1"
# output 11.7 µM

# input Entry to check: "CC/C=C/[C@@H]1C=C[C@@H]2CCC[C@H]2[C@@H]1CC[C@H](O)[C@H](C)N"
# output 1.97 µM

# input What do you get for CC(=O)O[C@@H]1C=CC(=O)C2(CC(=O)O[C@@H]2/C=C(\C)CCC=C(C)C)C1 (stereo not given in full) ?
# output 0.223 µM

# input Then "C#Cc1cccc(NC(=O)Nc2ccccc2NC(=O)CCl)c1" ?
# output 23.4 µM

# input Field entry: "COc1ccc(CCNc2nc3ccccc3c3[nH]c4ccccc4c23)cc1OC"
# output 4.73 µM

Field: GI50. Fill in for each record below.
1. O=C(Nc1ccc(Cl)c(Cl)c1)Nc1ccc(Cl)c([N+](=O)[O-])c1
2. CCc1cc(C(N)=O)ccc1-n1nc(C(C)C)c2c(-n3cnc(-c4cnn(C)c4)c3)ccnc21
3. Cc1ncc(C(=O)Nc2ccc(CN3CCN(C)CC3)c(C(F)(F)F)c2)cc1C#Cc1c(N)ncc2ccc(C#N)cc12
4. Clc1ccc(Cl)c(N/N=C\c2c[nH]c3ccccc23)c1
5. CCOC(=O)c1cc2c(n1Cc1cccc(OC)c1)-c1oncc1CC2
6. Cn1cc(-c2ccc3cc(-c4ccc(CC(=O)Nc5cc(C(C)(C)C)nn5C)cc4)cnc3c2)cn1

# output
1.02 µM
32.8 µM
5.06 µM
15.6 µM
0.302 µM
0.355 µM

Look at each molecule and report its GI50.
1. FC(F)(F)c1ccc2nc(-c3nc(-c4ccccc4)n4ccccc34)[nH]c2c1
2. COc1ccc(C(=O)CC2(O)C(=O)Nc3c(Cl)ccc(Cl)c32)cc1 (stereo not given)
3. O=c1ccc2nc(-c3ccccc3)nn(-c3ccccc3)c-2c1
4. N#Cc1c(N)nn(C(=O)c2ccc(NC(=O)c3ccccn3)cc2)c1-c1ccc(Cl)cc1

# output
["3.71 µM", "0.715 µM", "8.11 µM", "4.09 µM"]

====

# Test system: HOP-92 NSCLC
# experiment.notes: NCI tumour cell line growth inhibition, 48 h
Give TGI for every item shown.

# input Can you look up TGI on HOP-92 NSCLC for "COc1ccc(NC(=O)c2ccc(NC3=C(Cl)C(=O)N(Cc4ccccc4)C3=O)cc2)cc1" ?
# output 13.8 µM

# input And then "C/C(O)=C/c1nc2ccccc2nc1/C=C(/C)O" , what is it?
# output 66.2 µM

# input Now the compound CC1CN(CCO)CC(C)O1 (stereo not drawn)
# output > 100 µM

# input Would you kindly repeat that for "CC(=O)Nc1ccc2c(C(=O)O)c(C)c(=O)[nH]c2n1" ?
# output 56 µM

# input Follow-up entry: "COc1ccc(C(=O)c2cc3c(N)c(C(=O)Nc4cccc(Cl)c4)sc3nc2C)cc1"
# output > 33.3 µM

# input Another: COc1cc(C2c3cc4c(cc3C(O)C3CCC(=O)N23)OCO4)cc(OC)c1OC (stereo not drawn)
# output > 100 µM

# input Also, "COC(=O)C1=C(O)C(O)=C(C(=O)OC)CC1" please.
# output > 100 µM

---
# input HOP-92 NSCLC / TGI / "C=Nc1ccc([N+](=O)[O-])cc1" : value?
# output > 100 µM

====

# Tested on: OVCAR-8 ovarian
# experiment.notes: NCI tumour cell line growth inhibition, 48 h; in the data active = GI50 below about 0.43 µM; inactive = the rest
Give your call using only these classes: True = active, False = inactive

For orientation, consider the following solved cases.
# input For "COc1ccc(C(=O)/C=C/c2ccc(Cl)cc2)cc1S(N)(=O)=O" , what call appears in the results of this test?
# output False

# input Follow-up entry: "C#Cc1cccc(NC(=O)Nc2ccccc2NC(=O)CCl)c1"
# output False

Further cases:
# input Recorded call for "CC(C)Oc1cc(OCC(=O)O)cc(C(=O)N(CCC(N)=O)C(=O)Nc2ccc(C(=O)O)cc2OC(C)C)c1" ?
# output False

# input Now this one: "Cc1cc2c(-c3nc4ccccc4[nH]3)c(O)c(O)cc2c(O)c1-c1c(C)cc2c(-c3nc4ccccc4[nH]3)c(O)c(O)cc2c1O"
# output True

# input // next record "CCN1CCN(C(=O)[C@]23CC[C@@H](C)[C@H](C)[C@@H]2C2=CC[C@@H]4[C@@]5(C)C/C(=C/c6cccnc6)C(=O)C(C)(C)[C@@H]5CC[C@@]4(C)[C@]2(C)CC3)CC1"
# output False

# input Now this one: COc1ccc(C(=O)CC2(O)C(=O)Nc3c(Cl)ccc(Cl)c32)cc1 (stereo not drawn)
# output False

# input Can you check "CC(C)(O)Cn1c(=O)c(Oc2ccc(F)cc2F)cc2cnc(NC3CCOCC3)nc21" next?
# output False

# input Entry "COc1cc(-c2cc(-c3ccc(N(C)C)cc3)nc(N3CCC(O)CC3)c2C#N)cc(OC)c1OC" please
# output False

====

Would you kindly list GI50 for each of these compounds?
# Tested on: SF-295 CNS
# experiment.notes: NCI tumour cell line growth inhibition, 48 h

Solved cases below.
# input GI50 lookup needed for "Cc1cc(Cl)n2c(nc3ccccc32)c1C#N" , thanks.
# output 0.521 µM

# input Then this compound: O=P(O)(O)OC1C(OP(=O)(O)O)C(OP(=O)(O)O)C(OP(=O)(O)O)C(OP(=O)(O)O)C1OP(=O)(O)O (stereo not drawn)
# output > 2000 µM

# input Likewise for "N#Cc1c(N)nn(C(=O)c2ccc(NC(=O)c3ccccn3)cc2)c1-c1ccc(Cl)cc1" ?
# output 3.06 µM

# input What about this compound? "CCN1CCN(C(=O)[C@]23CC[C@@H](C)[C@H](C)[C@@H]2C2=CC[C@@H]4[C@@]5(C)C/C(=C/c6cccnc6)C(=O)C(C)(C)[C@@H]5CC[C@@]4(C)[C@]2(C)CC3)CC1"
# output 1.63 µM

# input How about this compound: "Cc1ncc(C(=O)Nc2ccc(CN3CCN(C)CC3)c(C(F)(F)F)c2)cc1C#Cc1c(N)ncc2ccc(C#N)cc12"
# output > 26.7 µM

# input // same read-out, input: "Cc1cc2c(-c3nc4ccccc4[nH]3)c(O)c(O)cc2c(O)c1-c1c(C)cc2c(-c3nc4ccccc4[nH]3)c(O)c(O)cc2c1O"
# output 0.0227 µM

# input Please answer likewise for "CCN(CC)CCCCCCCCNc1c2ccc(Cl)cc2nc2ccc(OC)cc12"
# output 1.68 µM

Continuing:
# input Reported GI50 for "CCc1nc(N)nc(N)c1-c1ccc(Cl)cc1" : what is it?
# output 3.17 µM

====

# Test system: SF-295 CNS
# experiment.notes: NCI tumour cell line growth inhibition, 48 h
Give measured TGI for each item. Keep answers brief.
Numbers only, in µM.

# input Param item = "O=C(Nc1ccc(Cl)c(Cl)c1)Nc1ccc(Cl)c([N+](=O)[O-])c1" ; retrieve measured TGI.
# output 2.54

# input Same question for "C(=N\Nc1ncc(-c2cc3cc4c(cc3o2)OCO4)s1)/c1c[nH]c2ccccc12" please.
# output 4.31

// switching to the query compound
# input Reported TGI, compound COc1ccc([C@H]2c3cc(OC)c(OC)cc3C=C(C=O)C2CO)cc1OC (stereo not given in full) : ____
# output 5.85

====

Would you kindly list TGI for each of these molecules?
# Tested on: MDA-MB-435
# experiment.notes: NCI tumour cell line growth inhibition, 48 h
Answers are plain numbers, in µM.

As a guide, the following entries are already answered.
# input # query: TGI of entry "C(=N\Nc1ncc(-c2cc3cc4c(cc3o2)OCO4)s1)/c1c[nH]c2ccccc12"
# output 4.44

# input What would you report for "CC(C)OC(=O)c1ccc(NCC2=CC(=O)C=CC2=O)cc1Cl" ?
# output 35.1

# input Now the same for "Oc1nc(N/N=C/c2c[nH]c3ccccc23)[nH]c1/C=C1\C=Nc2ccccc21"
# output 62.4

# input Try COc1cc(C2c3cc4c(cc3C(O)C3CCC(=O)N23)OCO4)cc(OC)c1OC (stereo not given) next.
# output 18

# input // same read-out, input: "COc1c(O)c2ccccc2c2cc(O)ccc12"
# output 2.3

For each entry beneath this line, provide reported TGI.
1. COc1cc([C@@H]2c3cc4c(cc3[C@H](OC3OC5COC(c6ccccc6)OC5C(O)C3O)[C@H]3COC(=O)[C@H]23)OCO4)cc(OC)c1OC (stereo not given in full)
2. COC12C=C/C(=C(/C(=O)OCc3ccncn3)C(=O)CCCCCCCCC3(OC)C=C/C(=C(/C(=O)OCc4ccncn4)C(=O)CCCCCCCC1)O3)O2
3. COC(=O)c1c(OC(C)=O)ccc2c1c1c(OC(C)=O)c3ccccc3c(OC(C)=O)c1n2Cc1cc(OC)cc(OC)c1

# output
3.08
0.405
78.3

Please look at the items below and tell me TGI for each one, in order.
1. O=[N+]([O-])c1ccc2c(c1)nc(Cc1ccccc1)n2C[C@@H]1CCCN2CCCCC12 (stereo not given in full)
2. Cc1cc(O)c(C(C)C)cc1NC(=O)Nc1cccc2ccccc12

# output
1. 35.5
2. 31.1

# input Given "CCN(CC)CCCCCCCCNc1c2ccc(Cl)cc2nc2ccc(OC)cc12" , state its recorded TGI.
# output 3.74
